For each record, write down the corresponding pKa.
Assay: pKa of the dyes in aqueous solution, derived from the absorbance spectra
Type: physicochemical
Give bare numbers.

O=C1C=CC2(C=C1)C1=CC(=O)C=CC1=Nc1ccc(O)cc12 [Example 1]; 6.5

For the 6 compounds below, give their pKa values.
1. CC1=CC(=O)C=C(C(C)C)C12C1=CC(=O)C=CC1=Nc1ccc(O)cc12 (stereo not shown) [Example 6]
2. O=C1C=CC2=Nc3ccc(O)cc3C3(C=CC(=O)C4=C3CCCC4)C2=C1 (stereo not shown) [Example 5]
3. CC1=C(C)C2(C3=CC(=O)C=CC3=Nc3ccc(O)cc32)C(C)=C(C)C1=O [Example 4]
4. CC1=CC(=O)C=C(C)C12C1=CC(=O)C=CC1=Nc1ccc(O)cc12 [Example 2]
5. CC(C)(C)C1=CC2(C=CC1=O)C1=CC(=O)C=CC1=Nc1ccc(O)cc12 (stereo not shown) [Example 7]
6. CC1=CC(=O)C(C)=C(C)C12C1=CC(=O)C=CC1=Nc1ccc(O)cc12 (stereo not shown) [Example 3]

Data returned:
1. 6.4
2. 6.7
3. 6.5
4. 6.5
5. 7.2
6. 6.5
